tested on: Fibroblast; assay: Multiplex assay against human fibroblast; type: toxicity, cell-based; details: 12 h, 10 µM, compound concentration 10 uM, replicate 1
A collection of compounds and their measured Population Membrane Permeable-Phenotype (%)
Numbers only here, please. The scale is %.

Example entries and their recorded answers appear below.
Compound	Reported Measurement
OCCCNc1cc(-c2ccnc(Nc3cccc(Cl)c3)n2)ccn1	9
COc1ccc2[nH]c(I)c(CCNC(C)=O)c2c1	2
COc1ccc2c(c1OCc1ccccc1)C[C@@H](C(=O)O)N(C(=O)C(c1ccccc1)c1ccccc1)C2	1
CN1C[C@H](C(=O)N[C@]2(C)O[C@@]3(O)[C@@H]4CCCN4C(=O)[C@H](Cc4ccccc4)N3C2=O)C[C@@H]2c3cccc4[nH]cc(c34)C[C@H]21.CS(=O)(=O)O [DIHYDROERGOTAMINE MESYLATE]	0

Give the reported value of Population Membrane Permeable-Phenotype (%) for this record: COc1cc(OC2CCN(C(C)=O)CC2)ccc1C(=O)N1CCC(N2C(=O)OCc3ccccc32)CC1
0

Tell me Population Membrane Permeable-Phenotype (%) reported for Cc1cc(O)c(-c2ccc([C@@H](C)CN(C)C)cc2)c2c1[nH]c(=O)c1sccc12
0

The origin of these recorded values is ChEMBL document CHEMBL5058577.
